Data credit: ChEMBL document CHEMBL4342423

- TGT: BDNF/NT-3 growth factors receptor (Homo sapiens)
- Sequence (Q16620 whole entry, the tested form may be a part): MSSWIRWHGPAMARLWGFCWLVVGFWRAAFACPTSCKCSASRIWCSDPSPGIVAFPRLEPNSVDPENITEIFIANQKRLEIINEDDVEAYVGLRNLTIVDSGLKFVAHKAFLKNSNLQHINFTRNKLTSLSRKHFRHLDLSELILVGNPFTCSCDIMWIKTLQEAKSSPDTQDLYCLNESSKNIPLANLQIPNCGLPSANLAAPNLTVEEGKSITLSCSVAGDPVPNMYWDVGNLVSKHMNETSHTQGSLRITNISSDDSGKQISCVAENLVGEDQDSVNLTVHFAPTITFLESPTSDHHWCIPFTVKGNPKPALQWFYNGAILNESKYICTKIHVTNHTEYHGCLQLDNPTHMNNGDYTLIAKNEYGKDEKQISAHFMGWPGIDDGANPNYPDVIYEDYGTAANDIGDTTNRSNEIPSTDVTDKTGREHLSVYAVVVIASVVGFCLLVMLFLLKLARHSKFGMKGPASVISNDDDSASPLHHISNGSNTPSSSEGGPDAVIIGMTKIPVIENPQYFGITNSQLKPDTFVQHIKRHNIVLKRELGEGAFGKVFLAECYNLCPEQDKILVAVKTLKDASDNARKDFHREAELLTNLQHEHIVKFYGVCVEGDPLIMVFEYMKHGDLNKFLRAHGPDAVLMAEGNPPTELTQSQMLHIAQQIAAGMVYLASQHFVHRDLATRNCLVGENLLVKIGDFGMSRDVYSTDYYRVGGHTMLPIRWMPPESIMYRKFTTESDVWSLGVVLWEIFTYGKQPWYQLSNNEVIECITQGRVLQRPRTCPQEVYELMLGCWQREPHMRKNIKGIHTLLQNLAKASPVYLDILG
- ASSAY_METHOD_TEXT: Inhibition of wild type human N-terminal GST-fusion tagged TRKB kinase domain (456 to 822 residues) expressed in baculovirus expression system by HTRF assay
Here the recorded IC50 is given for each entry.
MEASURED_METRIC: IC50 (µM)

> print(dat)
                                        mol  meas.value
1  Nc1c(N2CCN(C3CCCCC3)CC2)cc(Nc2ccc(C(=O)O)cc2)c2c1C(=O)c1ccccc1C2=O          94
2  CC(C)Oc1cc(Nc2nc(N[C@@H](C)c3ccc(F)cn3)ncc2Cl)n[nH]1     0.00093
